The entries below are paired with their reported CC50.
protocol: Cytotoxicity panel (CC50), Huh-7
Type: cell-based, human
condition-label: human, huh-7 cells
endpoint-label: CC50

1. C[C@@]1(F)[C@H](O)[C@@H](CO)O[C@H]1n1ccc(=S)[nH]c1=O ... > 400 µM
2. CC(C)OC(=O)[C@H](C)NP(=O)(OC[C@H]1O[C@@H](n2ccc(=S)[nH]c2=O)[C@](C)(O)[C@@H]1O)Oc1ccccc1 (stereo partly drawn) [drawing 455] ... > 400 µM
3. CC(C)OC(=O)[C@H](C)NP(=O)(OC[C@H]1O[C@@H](n2ccc(=O)[nH]c2=S)[C@](C)(O)[C@@H]1O)Oc1ccccc1 (stereo partly drawn) [drawing 453] ... > 400 µM
4. C[C@H](NP(=O)(O)OC[C@H]1O[C@@H](n2ccc(=O)[nH]c2=S)[C@](C)(O)[C@@H]1O)C(=O)O ... > 400 µM
5. CC(C)OC(=O)[C@H](C)NP(=O)(OC[C@H]1O[C@@H](n2ccc(=O)[nH]c2=[Se])[C@](C)(O)[C@@H]1O)Oc1ccccc1 (stereo partly drawn) ... > 100 µM
6. CC(C)OC(=O)[C@H](C)NP(=O)(OC[C@H]1O[C@@H](n2ccc(=S)[nH]c2=O)[C@](C)(F)[C@@H]1O)Oc1ccccc1 (stereo partly drawn) ... > 300 µM
7. C[C@@]1(O)[C@H](O)[C@@H](CO)O[C@H]1n1ccc(=O)[nH]c1=S [drawing 452] ... > 100 µM
8. C[C@@]1(O)[C@H](O)[C@@H](COP(=O)(O)O)O[C@H]1n1ccc(=O)[nH]c1=S ... > 400 µM
9. CC(C)OC(=O)[C@H](C)N[P@@](=O)(OC[C@H]1O[C@@H](n2ccc(=O)[nH]c2=O)[C@](C)(F)[C@@H]1O)Oc1ccccc1 ... > 400 µM
10. O=c1[nH]c(=S)ccn1[C@@H]1O[C@H](CO)[C@@H](O)[C@H]1O ... 60 µM
11. CC(C)OC(=O)[C@H](C)NP(=O)(OC[C@H]1O[C@@H](n2ccc(=O)[nH]c2=S)[C@H](O)[C@@H]1O)Oc1ccccc1 (stereo partly drawn) [drawing 463] ... > 400 µM
12. C[C@@]1(O)[C@H](O)[C@@H](CO)O[C@H]1n1ccc(=S)[nH]c1=O ... > 100 µM
